Molecular target: T1, TNFR1 (Homo sapiens, UniProt P19438)
T1 chain: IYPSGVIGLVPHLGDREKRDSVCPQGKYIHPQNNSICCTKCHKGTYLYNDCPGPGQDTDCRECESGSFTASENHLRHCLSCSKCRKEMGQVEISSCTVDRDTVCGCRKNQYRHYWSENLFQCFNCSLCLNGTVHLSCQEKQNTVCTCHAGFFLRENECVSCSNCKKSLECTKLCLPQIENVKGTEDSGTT
Assay: yeast display SC50
Readout: apparent Kd (screen) (nM)

Binder	apparent Kd (screen) / nM
K29V (designed binder) SMEEEVEKAAKEYEKKKKEAIEKHLEKLVAKDKEAAERFLKELEEAAKEYAKDEAKTMSEEEAKRRAKKYKEKVLLSELSEEEQKEIKEAEEKLVRTILKYVEEAAK	0.869
E3G (designed binder) SMGEEVEKAAKEYEKKKKEAIEKHLEKLKAKDKEAAERFLKELEEAAKEYAKDEAKTMSEEEAKRRAKKYKEKVLLSELSEEEQKEIKEAEEKLVRTILKYVEEAAK	3
E4S (designed binder) SMESEVEKAAKEYEKKKKEAIEKHLEKLKAKDKEAAERFLKELEEAAKEYAKDEAKTMSEEEAKRRAKKYKEKVLLSELSEEEQKEIKEAEEKLVRTILKYVEEAAK	0.539
K64P (designed binder) SMEEEVEKAAKEYEKKKKEAIEKHLEKLKAKDKEAAERFLKELEEAAKEYAKDEAKTMSEEEAPRRAKKYKEKVLLSELSEEEQKEIKEAEEKLVRTILKYVEEAAK	2.73

A = D32Y (designed binder) SMEEEVEKAAKEYEKKKKEAIEKHLEKLKAKYKEAAERFLKELEEAAKEYAKDEAKTMSEEEAKRRAKKYKEKVLLSELSEEEQKEIKEAEEKLVRTILKYVEEAAK
B = K33T (designed binder) SMEEEVEKAAKEYEKKKKEAIEKHLEKLKAKDTEAAERFLKELEEAAKEYAKDEAKTMSEEEAKRRAKKYKEKVLLSELSEEEQKEIKEAEEKLVRTILKYVEEAAK
-- ask From the recorded data, which exceeds the other in apparent Kd (screen): A or B ? Give the chosen item's label as your response.
-- reply A
(A: 13.8 nM, B: 0.49 nM)
